Assay Text: In vitro cytotoxicity assay (LDH release)
Format: cell-based, human
Conditions Used: human, LoVo colon cancer cells; 200 µg/ml; 24 h; read-out: Mean % Cell Viability ± SD CRC-LoVo cells
Labelling field: enter True if recorded viability at 24 h, 200 µg/mL is less than 70%. Enter False if it equals or exceeds that cut-off.

Past entries and their recorded results:
Chemical String: CCc1ccc(C=Nn2c(C)nc3ccc(F)cc3c2=O)s1
Qualitative Label: False
--
Chemical String: COc1cc2nc(C)n(N=Cc3cc(OC)c(O)c([N+](=O)[O-])c3)c(=O)c2cc1OC
Qualitative Label: False
--
Chemical String: COc1cc(C=Nn2c(C)nc3ccc(Cl)cc3c2=O)ccc1OCc1ccccc1
Qualitative Label: False

viability at 24 h, 200 µg/mL under 70%? Item: COc1cc(C=NNc2nc3ccccc3[nH]c2=O)cc([N+](=O)[O-])c1O
False

Follow-up entry: COc1cc2nc(C)n(N=Cc3ccc(C(=O)O)cc3)c(=O)c2cc1OC
True

Then what about the compound COc1cc2nc(C)n(N=Cc3ccc(OCc4ccccc4)c(OC)c3)c(=O)c2cc1OC ?
True
